- tgt: HLA-B*40:01
- protocol_description: IEDB peptide-MHC binding, purified MHC/competitive/fluorescence; filed as Kd, often an IC50 or EC50 that approximates it; bounds were set here for any values at or beyond the usual limits of such assays
- conditions: source organism: Escherichia coli 101-1
experimental_endpoint: Kd (nM)

INSERT INTO results (monomer_sequence, tgt, unit_name, measurement) VALUES
  ('FEANALSVI', 'HLA-B*40:01', 'nM', 9.7);

====

- tgt: HLA-A*02:01
- protocol_description: IEDB peptide-MHC binding, purified MHC/competitive/fluorescence; bounds were set here for any values at or beyond the usual limits of such assays
- conditions: source organism: Hepatitis C virus genotype 1
pIC50: −log10 of the molar value.
experimental_endpoint: pIC50

INSERT INTO measurements (monomer_sequence, measurement) VALUES
  ('YVGDLCGSV', '≤ 4.30');
